The reported measurements were obtained from patent US20200157194A1.

Target: T1, human GREM1 (hGREM1-His; SEQ ID NO: 595) (human, UniProt O60565 25-184)
T1 construct: also called biotin-hGREM1-His; recombinant human GREM1 protein
T1 sequence: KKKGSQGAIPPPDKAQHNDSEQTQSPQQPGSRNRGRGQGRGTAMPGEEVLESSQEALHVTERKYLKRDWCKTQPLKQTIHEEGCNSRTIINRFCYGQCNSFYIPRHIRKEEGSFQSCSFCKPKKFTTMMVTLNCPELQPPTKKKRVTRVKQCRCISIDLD
Assay: SPR, Biacore T200, 25 C, mAb captured, hGREM1-His injected;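 further: Heparin-supplemented HBS-EP+ used as running buffer, association and dissociation phases followed, Kd computed as koff divided by kon and half-life derived from koff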
Overview of reported Kd across a group of binders:
Use nM as the unit, but write only the number.

Here's what some known entries look like.
Binder	Kd (nM)
H4H2889N (antibody, human IgG4, V domains shown, H4H prefix = human IgG4 Fc) VH: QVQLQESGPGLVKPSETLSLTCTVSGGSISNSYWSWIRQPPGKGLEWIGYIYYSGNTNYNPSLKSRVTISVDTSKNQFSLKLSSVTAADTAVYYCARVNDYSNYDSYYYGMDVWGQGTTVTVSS VL: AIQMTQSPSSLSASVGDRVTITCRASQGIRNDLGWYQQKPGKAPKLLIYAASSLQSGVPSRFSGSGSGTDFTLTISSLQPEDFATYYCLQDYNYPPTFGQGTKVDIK	1.89
H4H6270P (antibody, human IgG4, V domains shown, H4H prefix = human IgG4 Fc) VH: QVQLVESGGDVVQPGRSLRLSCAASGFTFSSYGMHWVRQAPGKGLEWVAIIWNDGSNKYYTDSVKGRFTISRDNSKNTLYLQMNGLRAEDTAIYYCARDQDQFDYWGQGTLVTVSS VL: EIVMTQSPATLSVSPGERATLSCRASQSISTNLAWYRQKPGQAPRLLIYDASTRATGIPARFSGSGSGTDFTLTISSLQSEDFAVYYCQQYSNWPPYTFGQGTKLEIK	4.08

// query So what's the measured Kd for this one? H2bM2890N (antibody, mouse IgG2, V domains shown, H2M prefix = mouse IgG2 Fc (here H2bM); also called H2M2890N) VH: QVQLVESGGGVVQPGRSLRLTCAASGFTFSSFGMHWVRQAPGKGLEWVAIIWYDGSNKYYADSVKGRFTISRDNSKNTLYLQMNSLRAEDTAVYYCAREDNWTRDYFDYWGQGTLVTVSS VL: EIVLTQSPATLSLSPGERATLSCRASQSVSNFLAWYQQKPGQAPRLLIYDASNRATGIPARFSGSGSGTDFTLTISSLEPEDFAVYYCQQRSNWPPLPFGGGTKVEIK
// result 130

// query Given the entry H4H6250P (antibody, human IgG4, V domains shown, H4H prefix = human IgG4 Fc) VH: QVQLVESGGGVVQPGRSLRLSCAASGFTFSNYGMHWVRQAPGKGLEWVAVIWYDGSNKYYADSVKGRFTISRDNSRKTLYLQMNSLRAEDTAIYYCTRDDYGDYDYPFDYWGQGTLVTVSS VL: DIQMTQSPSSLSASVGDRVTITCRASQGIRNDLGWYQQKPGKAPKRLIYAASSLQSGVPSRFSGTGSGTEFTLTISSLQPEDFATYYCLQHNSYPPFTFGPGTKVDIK , report its measured Kd.
// result 3.3

// query Which Kd value is on record for H3M2788N (antibody, V domains shown, H3M prefix marks the Fc (chimeric, mouse constant domains)) VH: QVQLVESGGGVVQPGRSLRLSCAASGFTFSSHGMHWVRQAPGKGLEWVAVIWYDGSNKYHADSVKGRFTIYRDNSKNTLDLQMNSLRVEDTAMYYCAREDSNNEDLDYWGQGTLVTVSS VL: DIQMTQSPSSLSASVGDRVTITCRASQGIRNDLGWFQQKPGKAPKRLIYVASNLQSGVPSRFSGSGSGTEFTLTISSLQPEDFATYYCLQHSNYPPWTFGQGTKVEIK ?
// result 4.2
